Reference source for all entries: patent US20260008852A1

Molecular target: T1, B7-H3 on B7-H3-expressing CHO cells (Genescript) (UniProt Q5ZPR3 29-534, limits assumed)
T1 construct: whole, on cells; also called CHO-K1/B7-H3; MFI B7-H3
T1 sequence (looked up): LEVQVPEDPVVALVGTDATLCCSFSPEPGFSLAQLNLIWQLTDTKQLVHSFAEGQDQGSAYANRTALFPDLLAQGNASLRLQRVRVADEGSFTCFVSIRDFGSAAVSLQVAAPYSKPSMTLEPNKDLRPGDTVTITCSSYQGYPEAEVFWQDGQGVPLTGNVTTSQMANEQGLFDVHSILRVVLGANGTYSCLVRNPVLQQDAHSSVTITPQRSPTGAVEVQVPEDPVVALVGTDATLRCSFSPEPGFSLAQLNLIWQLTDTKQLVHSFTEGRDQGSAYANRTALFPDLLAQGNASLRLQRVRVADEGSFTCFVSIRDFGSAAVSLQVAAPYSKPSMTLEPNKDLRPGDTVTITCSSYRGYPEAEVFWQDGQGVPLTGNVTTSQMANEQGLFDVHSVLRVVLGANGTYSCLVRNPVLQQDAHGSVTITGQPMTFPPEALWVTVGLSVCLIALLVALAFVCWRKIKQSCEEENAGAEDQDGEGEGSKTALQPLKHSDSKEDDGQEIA
Assay: flow cytometry, B7-H3-expressing CHO cells, 10 ug/ml
measured_property: MFI @ 10 ug/ml (MFI)

- 40511p1.1.G3 (scFv, V domains shown, Tested as scFv-Fc (Expi293 supernatant)) VH: DVQLVESGGGVVRPGESLTLSCAASGFTINSYAVSWVRQAPGEGLEWVSGISGSGVRYYADSVKGRFTISRDDSNNTLYLQMNSLRAEDTAVYYCARSNKVTWNNFFDYWGLGTLVTVSS VL: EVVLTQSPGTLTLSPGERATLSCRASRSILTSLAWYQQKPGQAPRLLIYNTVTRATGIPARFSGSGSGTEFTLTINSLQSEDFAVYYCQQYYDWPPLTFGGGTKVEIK: 89100
- 40579p1.E5 (scFv, V domains shown, Tested as scFv-Fc (Expi293 supernatant)) VH: EVQLLESGGGLVQPGGSLRLSCAASGFTFSDDWMTWVRQAPGKGLEWVSAINWNGNSTHYADSVKGRFTVSRDNSKNTLYLQMNSLRAEDTAVYYCAKSRTTYYSSMDVWGQGTTVTVSS VL: EIVLTQSPGTLSLSPGERATLSCRASQTVGSYLAWYQQKPGQAPRLLIYGASSRATGIPARFSGSGSGTDFTLTISSLQSEDFAVYYCQHYYDWPPYSFGGGTKVEIK: 89200
